Measured values drawn from patent US20240083945A1 for this set.

# experimental.target: T1, COVID-19 nucleocapsid protein (N-protein) (severe acute respiratory syndrome …, UniProt P0DTC9 1-419)
# T1 construct: also called nucleocapsid protein (N-protein) of severe acute respiratory syndrome coronavirus 2 (SARS-CoV-2)
# assay.comment: bio-layer interferometry (BLI)
attribute.measured: Kd (nM)
Answers are plain numbers, in nM.

Observe how each entry below is paired with its result.
{"binder": "ACLEAGQRCQWSRTCA (Ci, Cii and Ciii cysteines covalently bound to TATA scaffold) [BCY17651]", "Kd, nM": 686}
{"binder": "ACWTDFCNNRYVTQRCA (Ci, Cii and Ciii cysteines covalently bound to TBMT scaffold) [BCY17634]", "Kd, nM": 64.2}
{"binder": "ACWTDFCNNRYIVNTCA (Ci, Cii and Ciii cysteines covalently bound to TBMT scaffold) [BCY17624]", "Kd, nM": 56.3}
{"binder": "ACTNLEWANCYINHNCA (Ci, Cii and Ciii cysteines covalently bound to TATA scaffold) [BCY19573]", "Kd, nM": 1190}
{"binder": "MPTSCVTDFCNNRYVVNRCA (Ci, Cii and Ciii cysteines covalently bound to TBMT scaffold) [BCY18984]", "Kd, nM": 72.8}
{"binder": "ACTTDFCNNRYVVNRCGSDN (Ci, Cii and Ciii cysteines covalently bound to TBMT scaffold) [BCY18971]", "Kd, nM": 27.9}

// next item, Kd requested
Record request: Kd value, item RRAVCTTDFCNNRYVVNRCDDYH (Ci, Cii and Ciii cysteines covalently bound to TBMT scaffold) [BCY18978]
40.2
